Data origin: ChEMBL document CHEMBL1127360

test system: Mus musculus; experiment: In vivo for its narcotic antagonistic activity of the antinociceptive effect in mouse; type: functional, organism-based
Calls of active or inactive are those of the source. No cut-off for these calls is given here.
recorded-endpoint: Activity

> print(dat)
                                input.smiles  experimental.value
 1  CCCCCCCCCCN1CC[C@]2(C)c3cc(O)ccc3CC1[C@@H]2C            inactive
 2   CCCCCN1CC[C@]2(C)c3cc(O)ccc3CC1[C@@H]2C            inactive
 3      CCN1CC[C@@]2(C)c3cc(O)ccc3CC1[C@H]2C            inactive
 4  CCCCCCCN1CC[C@]2(C)c3cc(O)ccc3CC1[C@@H]2C            inactive
 5       C[C@H]1C2Cc3ccc(O)cc3[C@@]1(C)CCN2C            inactive
 6    CCCCN1CC[C@@]2(C)c3cc(O)ccc3CC1[C@H]2C            inactive
 7  CCCCCCCCN1CC[C@]2(C)c3cc(O)ccc3CC1[C@@H]2C            inactive
 8   CCCCCN1CC[C@@]2(C)c3cc(O)ccc3CC1[C@H]2C            inactive
 9  CCCCCCCCCN1CC[C@]2(C)c3cc(O)ccc3CC1[C@@H]2C            inactive
10        C[C@@H]1C2Cc3ccc(O)cc3[C@]1(C)CCN2            inactive
11  CCCCCCCCCCN1CC[C@]2(C)c3cc(O)ccc3CC1[C@H]2C            inactive

* * *

species: Cavia porcellus; assay: Ratio of potencies against PCP receptor to that of sigma receptor
Kindly return Y if reported Ratio is no lower than 200; return N if it is lower.

> print(dat)
                                input.smiles  answer.label
 1       C[C@H]1C2Cc3ccc(O)cc3[C@@]1(C)CCN2C             N
 2  CCCCCCCCN1CC[C@]2(C)c3cc(O)ccc3CC1[C@H]2C             Y
 3  CCCCCCN1CC[C@]2(C)c3cc(O)ccc3CC1[C@@H]2C             N
 4  CCCCCCCCCN1CC[C@]2(C)c3cc(O)ccc3CC1[C@@H]2C             N
 5       C[C@@H]1C2Cc3ccc(O)cc3[C@]1(C)CCN2C             N
 6    CCCCN1CC[C@@]2(C)c3cc(O)ccc3CC1[C@H]2C             N
 7  CCCCCCCN1CC[C@]2(C)c3cc(O)ccc3CC1[C@H]2C             Y
 8  CCCCCCCCCCN1CC[C@]2(C)c3cc(O)ccc3CC1[C@@H]2C             Y
 9  CCCCCCCCCCN1CC[C@]2(C)c3cc(O)ccc3CC1[C@H]2C             N
10    CCCCN1CC[C@]2(C)c3cc(O)ccc3CC1[C@@H]2C             N
11  CCCCCCN1CC[C@@]2(C)c3cc(O)ccc3CC1[C@H]2C             Y

* * *

Mu-type opioid receptor (Rattus norvegicus) measurements of Ki, listed per entry.
Sequence (P33535 whole entry): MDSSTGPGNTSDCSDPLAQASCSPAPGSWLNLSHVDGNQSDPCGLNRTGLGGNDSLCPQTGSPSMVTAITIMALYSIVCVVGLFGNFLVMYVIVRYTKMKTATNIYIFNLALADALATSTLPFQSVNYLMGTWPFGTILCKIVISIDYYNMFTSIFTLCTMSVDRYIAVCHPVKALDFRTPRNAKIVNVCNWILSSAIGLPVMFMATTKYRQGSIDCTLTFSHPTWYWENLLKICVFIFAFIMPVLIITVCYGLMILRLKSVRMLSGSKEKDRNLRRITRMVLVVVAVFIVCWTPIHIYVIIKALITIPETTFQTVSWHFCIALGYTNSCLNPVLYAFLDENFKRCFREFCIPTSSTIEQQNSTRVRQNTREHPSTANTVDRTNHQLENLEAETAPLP
recorded-endpoint: Ki

> print(dat)
                                input.smiles                           subject.of.test  experimental.value
 1  CCCCCCCCCCN1CC[C@]2(C)c3cc(O)ccc3CC1[C@H]2C  Mu-type opioid receptor (Rattus norvegicus)             4620 nM
 2    CCCCN1CC[C@@]2(C)c3cc(O)ccc3CC1[C@H]2C  Mu-type opioid receptor (Rattus norvegicus)             2880 nM
 3        C[C@H]1C2Cc3ccc(O)cc3[C@@]1(C)CCN2  Mu-type opioid receptor (Rattus norvegicus)               23 nM
 4     CCCN1CC[C@@]2(C)c3cc(O)ccc3CC1[C@H]2C  Mu-type opioid receptor (Rattus norvegicus)             5220 nM
 5  CCCCCCCN1CC[C@]2(C)c3cc(O)ccc3CC1[C@@H]2C  Mu-type opioid receptor (Rattus norvegicus)              8.8 nM
 6  CCCCCCCCN1CC[C@]2(C)c3cc(O)ccc3CC1[C@@H]2C  Mu-type opioid receptor (Rattus norvegicus)               30 nM
 7  CCCCCCCCCN1CC[C@]2(C)c3cc(O)ccc3CC1[C@H]2C  Mu-type opioid receptor (Rattus norvegicus)             1380 nM
 8  CCCCCCCCCN1CC[C@]2(C)c3cc(O)ccc3CC1[C@@H]2C  Mu-type opioid receptor (Rattus norvegicus)              151 nM
 9  CCCCCCCCN1CC[C@]2(C)c3cc(O)ccc3CC1[C@H]2C  Mu-type opioid receptor (Rattus norvegicus)              522 nM
10  CCCCCCN1CC[C@]2(C)c3cc(O)ccc3CC1[C@@H]2C  Mu-type opioid receptor (Rattus norvegicus)              4.7 nM
11  CCCCCCN1CC[C@@]2(C)c3cc(O)ccc3CC1[C@H]2C  Mu-type opioid receptor (Rattus norvegicus)              795 nM
